Target: human KDR protein in HEK-293 cells (Homo sapiens (Human))
Sequence (P35968 20-1356): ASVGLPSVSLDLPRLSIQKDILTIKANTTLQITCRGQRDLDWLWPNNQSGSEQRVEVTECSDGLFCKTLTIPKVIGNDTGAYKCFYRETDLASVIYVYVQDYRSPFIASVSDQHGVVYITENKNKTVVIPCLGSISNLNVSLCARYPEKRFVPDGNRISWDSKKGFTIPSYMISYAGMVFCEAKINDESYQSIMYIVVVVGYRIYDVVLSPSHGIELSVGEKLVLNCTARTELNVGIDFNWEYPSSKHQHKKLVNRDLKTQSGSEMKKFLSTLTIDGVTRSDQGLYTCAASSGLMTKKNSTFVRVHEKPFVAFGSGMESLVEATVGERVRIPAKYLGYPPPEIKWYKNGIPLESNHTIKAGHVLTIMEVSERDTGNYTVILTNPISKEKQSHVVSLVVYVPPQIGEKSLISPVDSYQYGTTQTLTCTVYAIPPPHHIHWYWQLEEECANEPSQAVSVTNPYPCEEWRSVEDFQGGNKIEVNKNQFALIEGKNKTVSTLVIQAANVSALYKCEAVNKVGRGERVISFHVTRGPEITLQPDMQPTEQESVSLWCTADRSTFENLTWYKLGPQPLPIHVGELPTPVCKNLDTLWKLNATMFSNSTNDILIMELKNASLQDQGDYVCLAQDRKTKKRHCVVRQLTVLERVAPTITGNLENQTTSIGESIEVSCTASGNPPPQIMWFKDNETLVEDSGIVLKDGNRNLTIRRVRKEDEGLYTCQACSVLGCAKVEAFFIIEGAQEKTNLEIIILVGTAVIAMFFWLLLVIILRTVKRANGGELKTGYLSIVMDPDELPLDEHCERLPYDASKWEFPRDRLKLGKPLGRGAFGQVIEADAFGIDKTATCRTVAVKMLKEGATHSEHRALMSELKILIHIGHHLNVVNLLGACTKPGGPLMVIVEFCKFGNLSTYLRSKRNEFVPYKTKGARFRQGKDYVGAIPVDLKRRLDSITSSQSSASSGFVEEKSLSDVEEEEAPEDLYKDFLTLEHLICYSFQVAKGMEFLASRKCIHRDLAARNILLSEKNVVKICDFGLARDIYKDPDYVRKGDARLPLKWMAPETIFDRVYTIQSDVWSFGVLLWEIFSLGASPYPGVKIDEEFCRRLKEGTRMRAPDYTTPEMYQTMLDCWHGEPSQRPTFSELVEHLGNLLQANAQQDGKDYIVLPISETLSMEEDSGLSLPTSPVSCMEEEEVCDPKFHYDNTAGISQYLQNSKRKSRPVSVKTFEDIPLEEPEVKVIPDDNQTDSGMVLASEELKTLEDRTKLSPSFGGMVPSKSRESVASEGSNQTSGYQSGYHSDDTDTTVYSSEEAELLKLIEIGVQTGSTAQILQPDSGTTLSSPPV
Assay: KDR Cell Assay (phospho-KDR in HEK-293 cells expressing inducible KDR)
Type: cell-based
Conditions: pKDR Cell HEK 10% FBS IC50, HEK-293 cells expressing inducible KDR, VEGF stimulated, 10% FBS
I'd be grateful if you could share measured log10 of IC50 for these entries.
Hi team, quick reminder: these entries are log10 of IC50 (µM).

Here's what some known entries look like.
[
  {
    "smiles.data": "CC(C)C(=O)NC1(C)CCN(c2ccc(-c3cc(-c4cnn(C)c4)cn4ncc(C#N)c34)cn2)CC1",
    "log10 of IC50": -0.25
  },
  {
    "smiles.data": "CC(C)CC(=O)N1CCN(c2ccc(-c3cc(-c4cnn(C)c4)cn4ncc(C#N)c34)cn2)CC1",
    "log10 of IC50": -0.41
  }
]

Take each entry in turn and give its log10 of IC50.
1. COCCNC(=O)N1CCN(c2ccc(-c3cc(-c4cnn(C)c4)cn4ncc(C#N)c34)cn2)CC1
2. CN(C)CC(=O)N1CC2CCC(C1)N2c1ccc(-c2cc(-c3cnn(C)c3)cn3ncc(Cl)c23)cn1

Response line:
1. 0.01
2. -0.21

---

Target: human KDR protein in HEK-293 cells (Homo sapiens (Human))
Experiment: KDR Cell Assay (phospho-KDR in HEK-293 cells expressing inducible KDR)
Assay type: cell-based
Details: pKDR Cell HEK 10% FBS IC50, HEK-293 cells expressing inducible KDR, VEGF stimulated, 10% FBS
I'd be grateful if you could share measured IC50 for these entries.
Answers are plain numbers, in nM.

Take each entry in turn and give its IC50.
1. Cn1cc(-c2cc(-c3ccc(N4CC5(CCN(C(=O)OC(C)(C)C)CC5)C4)nc3)c3c(C#N)cnn3c2)cn1 [Example 223]
2. CN(C(=O)N1CCN(c2ccc(-c3cc(-c4cnn(C)c4)cn4ncc(C#N)c34)cn2)CC1)c1ccccc1 [Example 109]
3. CC(C)CS(=O)(=O)N1CCN(c2ccc(-c3cc(-c4cnn(C)c4)cn4ncc(C#N)c34)cn2)CC1 [Example 90]
4. CO[C@@H](C(=O)N1CCN(c2ncc(-c3cc(-c4cnn(C)c4)cn4ncc(C#N)c34)cn2)CC1)c1ccccc1 [Example 284]

Response line:
1550
360
24.1
663

---

I'd be grateful if you could share measured IC50 for these entries.
Target: Kif5b-RET fusion protein in HEK-293 cells (Homo sapiens, UniProt P07949)
Sequence (P07949 29-1114 limits assumed): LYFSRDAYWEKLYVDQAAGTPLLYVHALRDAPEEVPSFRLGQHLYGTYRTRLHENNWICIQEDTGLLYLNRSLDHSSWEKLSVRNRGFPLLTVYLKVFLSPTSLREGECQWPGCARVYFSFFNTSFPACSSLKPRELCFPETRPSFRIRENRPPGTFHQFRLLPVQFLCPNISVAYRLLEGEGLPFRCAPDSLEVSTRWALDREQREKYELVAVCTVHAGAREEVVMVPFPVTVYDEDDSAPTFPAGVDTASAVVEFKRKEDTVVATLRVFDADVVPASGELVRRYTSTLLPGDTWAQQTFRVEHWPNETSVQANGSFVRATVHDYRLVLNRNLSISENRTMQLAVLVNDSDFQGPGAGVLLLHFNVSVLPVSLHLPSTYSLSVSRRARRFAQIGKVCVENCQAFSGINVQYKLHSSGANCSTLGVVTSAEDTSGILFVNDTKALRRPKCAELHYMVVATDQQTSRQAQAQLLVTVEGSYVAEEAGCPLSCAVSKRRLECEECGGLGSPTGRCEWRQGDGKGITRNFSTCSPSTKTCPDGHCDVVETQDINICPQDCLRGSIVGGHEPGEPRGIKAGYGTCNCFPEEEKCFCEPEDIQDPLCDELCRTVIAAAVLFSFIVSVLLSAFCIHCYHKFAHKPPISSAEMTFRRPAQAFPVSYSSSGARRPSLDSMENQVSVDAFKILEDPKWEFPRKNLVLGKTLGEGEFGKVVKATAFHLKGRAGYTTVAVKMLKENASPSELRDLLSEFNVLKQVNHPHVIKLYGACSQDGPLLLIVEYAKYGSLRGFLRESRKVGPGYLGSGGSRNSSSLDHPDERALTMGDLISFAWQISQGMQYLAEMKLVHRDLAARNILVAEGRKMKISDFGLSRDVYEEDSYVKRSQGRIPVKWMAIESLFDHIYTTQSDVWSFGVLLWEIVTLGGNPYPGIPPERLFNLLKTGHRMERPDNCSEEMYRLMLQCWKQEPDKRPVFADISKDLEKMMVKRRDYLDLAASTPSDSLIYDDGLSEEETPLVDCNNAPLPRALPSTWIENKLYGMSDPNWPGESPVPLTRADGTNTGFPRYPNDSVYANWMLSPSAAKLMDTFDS
Test: cell-based
Conditions: HEK-293 cells expressing Kif5b-RET, phospho-RET(Tyr1062); read-out: KIF5B-RET pTYR1062 Cell IC50
One number for each entry, in nM.

Here's what some known entries look like.
[
  {
    "smiles.data": "Cn1cc(-c2cc(-c3ccc(N4CCN(C(=O)OC(C)(C)C)CC4)nc3)c3c(Cl)cnn3c2)cn1",
    "unit.annotation": "nM",
    "IC50": 742
  },
  {
    "smiles.data": "CCN(CC)C(=O)N1CCN(c2ccc(-c3cc(-c4cnn(C)c4)cn4ncc(C#N)c34)cn2)CC1",
    "unit.annotation": "nM",
    "IC50": 13
  },
  {
    "smiles.data": "CC(C)NC(=O)C1(C)CCN(c2ccc(-c3cc(-c4cnn(C)c4)cn4ncc(C#N)c34)cn2)CC1",
    "unit.annotation": "nM",
    "IC50": 5.6
  },
  {
    "smiles.data": "C[C@@H](O)CC(=O)N1CCN(c2ccc(-c3cc(-c4cnn(C)c4)cn4ncc(C#N)c34)cn2)CC1",
    "unit.annotation": "nM",
    "IC50": 54.9
  }
]

Take each entry in turn and give its IC50.
1. Cn1cc(-c2cc(-c3ccc(N4CCC(C)(C(=O)NCCC(F)(F)F)CC4)nc3)c3c(C#N)cnn3c2)cn1
2. COC1CCN(c2ccc(-c3cc(-c4cnn(C)c4)cn4ncc(C#N)c34)cn2)CC1
3. C[C@H](O)CC(=O)N1CCN(c2ccc(-c3cc(-c4cnn(C)c4)cn4ncc(C#N)c34)cn2)CC1

Response line:
6.1
25.3
48.6
